Data origin, for the record: patent US20220315554A1

- tested-target: FAP-expressing human WI-38 fibroblasts (Homo sapiens, UniProt Q12884)
- Construct: FAP-expressing human WI-38 fibroblasts (ECACC) were cultured in EMEM; host or cells: WI-38 human fibroblasts
- Sequence (Q12884 1-760): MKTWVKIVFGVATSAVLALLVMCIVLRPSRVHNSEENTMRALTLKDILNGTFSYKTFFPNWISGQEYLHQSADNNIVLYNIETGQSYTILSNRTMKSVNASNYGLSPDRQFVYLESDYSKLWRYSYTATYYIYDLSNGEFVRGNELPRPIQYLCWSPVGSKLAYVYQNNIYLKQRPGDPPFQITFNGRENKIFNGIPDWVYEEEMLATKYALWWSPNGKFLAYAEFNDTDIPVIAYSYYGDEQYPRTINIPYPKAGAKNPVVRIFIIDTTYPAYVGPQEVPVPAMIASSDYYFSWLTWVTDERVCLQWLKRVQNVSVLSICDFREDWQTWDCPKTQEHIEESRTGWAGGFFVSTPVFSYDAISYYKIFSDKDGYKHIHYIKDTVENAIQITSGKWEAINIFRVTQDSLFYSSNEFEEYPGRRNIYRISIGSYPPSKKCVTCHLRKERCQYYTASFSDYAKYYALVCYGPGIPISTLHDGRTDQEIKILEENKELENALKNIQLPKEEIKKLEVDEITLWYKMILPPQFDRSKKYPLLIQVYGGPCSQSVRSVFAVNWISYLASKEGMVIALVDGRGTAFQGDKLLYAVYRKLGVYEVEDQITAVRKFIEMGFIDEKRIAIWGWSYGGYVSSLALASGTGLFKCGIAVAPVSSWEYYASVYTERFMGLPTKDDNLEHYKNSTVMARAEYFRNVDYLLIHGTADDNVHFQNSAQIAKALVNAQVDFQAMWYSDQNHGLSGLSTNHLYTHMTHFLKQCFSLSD
- assay-protocol: Competitive FACS binding assay
- condition-context: pIC50 Category (FACS), competition with 3 nM Cy5-labeled compound, 4° C., 1 hour
Numbered stars: 1 amine (or outer) side, 2 acyl side, 3 side chain; on linkers, the order of the positions; unused ones are H or OH. Bridge positions count the residues as written; N and C are the ends. Square brackets hold non-standard residues; d marks the D form. Peptide text beside a SMILES is read from it. * marks the point of attachment. X4 = O=C1CN2CCN3CCN(CC(=O)N4CCN(Cc5cc(C[*:1])cc(C[*:2])c5)CC4)CCN(CC2)CC(=O)[O][In]([O]1)[O]C(=O)C3; X35 = O=C(O)CN(CCN(CCN(CC(=O)O)CC(=O)O)CC(=O)NCCCOCCOCCOCCCN*)CC(=O)O; mXylylene = c1cc(C[*:1])cc(C[*:2])c1; X25 = NCCSCc1cc(C[*:1])cc(C[*:2])c1; Pentanesulfonyl = CCCCCS(=O)(=O)*; X41 = NCCCCCC(=O)NCCCOCCOCCOCCCN*; Suc = O=C(CCC(=O)[*:2])[*:1]; Nle = CCCC[C@H](N)C(=O)O; Hexanoyl = CCCCCC(=O)*
IC50 values by entry

Query: Requested read-out: IC50. Entry: CCCC[C@H](NC(=O)CCC(=O)NCCCOCCOCCOCCCNC(=O)CCCCCN)C(=O)N[C@H]1CSCc2cccc(c2)CSC[C@@H](C(=O)N[C@@H](CC(=O)O)C(N)=O)NC(=O)[C@H](Cc2ccccc2)NC(=O)[C@H](CCC(N)=O)NC(=O)[C@H]([C@@H](C)O)NC(=O)[C@@H]2CCCN2C(=O)[C@@H]2CCCN2C1=O [3BP-3980] ({X41-Suc}-[Nle]CPPTQFCD-NH2; linker 2-8 via mXylylene)
Result: < 10 nM

Query: Try the compound CCCCCS(=O)(=O)N[C@H]1CSCc2cc(cc(CN3CCN(C(=O)CN4CCN5CCN6CCN(CC4)CC(=O)[O][In]([O]C(=O)C6)[O]C(=O)C5)CC3)c2)CSC[C@@H](C(=O)N[C@@H](CC(=O)O)C(N)=O)NC(=O)[C@H](Cc2ccccc2)NC(=O)[C@H](CCC(N)=O)NC(=O)[C@H]([C@@H](C)O)NC(=O)[C@@H]2CCCN2C(=O)[C@@H]2CCCN2C1=O [3BP-3717] (Pentanesulfonyl-CPPTQFCD-NH2; linker 1-7 via X4)
Result: < 10 nM

Query: Try the compound CCCCCC(=O)N[C@H]1CSCc2cc(CSCCN)cc(c2)CSC[C@@H](C(=O)N[C@@H](CC(=O)O)C(N)=O)NC(=O)[C@H](Cc2ccccc2)NC(=O)[C@H](CCC(N)=O)NC(=O)[C@H]([C@@H](C)O)NC(=O)[C@@H]2CCCN2C(=O)[C@@H]2CCCN2C1=O [3BP-3981] (Hexanoyl-CPPTQFCD-NH2; linker 1-7 via X25)
Result: 10 to 79.4 nM

Query: Try the compound CCCCCC(=O)N[C@H]1CSCc2cc(CSCCNC(=O)CCC(=O)NCCCOCCOCCOCCCNC(=O)c3ccc(NN)nc3)cc(c2)CSC[C@@H](C(=O)O)NC(=O)[C@H](Cc2ccccc2)NC(=O)[C@H](CCC(N)=O)NC(=O)[C@H]([C@@H](C)O)NC(=O)[C@@H]2CCCN2C(=O)[C@@H]2CCCN2C1=O
Result: < 10 nM

Query: Try the compound CCCC[C@H](NC(=O)CCC(=O)NCCCOCCOCCOCCCNC(=O)CN(CCN(CC(=O)O)CC(=O)O)CCN(CC(=O)O)CC(=O)O)C(=O)N[C@H]1CSCc2cccc(c2)CSC[C@@H](C(=O)O)NC(=O)[C@H](Cc2ccccc2)NC(=O)[C@H](CCC(=O)O)NC(=O)[C@H]([C@@H](C)O)NC(=O)[C@@H]2CCCN2C(=O)[C@@H]2CCCN2C1=O [3BP-4229] ({X35-Suc}-[Nle]CPPTEFC-OH; linker 2-8 via mXylylene)
Result: 100 to 794 nM

Let us examine a further case.
Query: Requested read-out: IC50. Entry: CCCCCC(=O)N[C@H]1CSCc2cc(CSCCNC(=O)CN3CCN(CC(=O)O)CCN(CC(=O)O)CCN(CC(=O)O)CC3)cc(c2)CSC[C@@H](C(=O)N[C@H](CC(=O)O)Cc2ccccc2)NC(=O)[C@H](Cc2ccccc2)NC(=O)[C@H](CCC(N)=O)NC(=O)[C@H]([C@@H](C)O)NC(=O)[C@@H]2CCCN2C(=O)[C@@H]2CCCN2C1
Result: < 10 nM

###

- tested-target: FAP-expressing human WI-38 fibroblasts (Homo sapiens, UniProt Q12884)
- Construct: FAP-expressing human WI-38 fibroblasts (ECACC) were cultured in EMEM; host or cells: WI-38 human fibroblasts
- assay-protocol: Competitive FACS binding assay
- condition-context: pIC50 Category (FACS), competition with 3 nM Cy5-labeled compound, 4° C., 1 hour
pIC50: −log10 of the molar value. Numbered stars: 1 amine (or outer) side, 2 acyl side, 3 side chain; on linkers, the order of the positions; unused ones are H or OH. Bridge positions count the residues as written; N and C are the ends. Square brackets hold non-standard residues; d marks the D form. Peptide text beside a SMILES is read from it. * marks the point of attachment. TBMB(SCH2CH2NH-DOTA) = O=C(O)CN1CCN(CC(=O)O)CCN(CC(=O)NCCSCc2cc(C[*:1])cc(C[*:2])c2)CCN(CC(=O)O)CC1; Phe(2-CF3) = N[C@@H](Cc1ccccc1C(F)(F)F)C(=O)O; Hexanoyl = CCCCCC(=O)*; Sar = CNCC(=O)O
pIC50 values by entry

Would you please look over these solved cases?
Query: Requested read-out: pIC50. Entry: CCCCCC(=O)N[C@H]1CSCc2cc(CSCCNC(=O)CC[C@H](C(=O)O)N3CCN(CC(=O)O)CN(CC(=O)O)C3)cc(c2)CSC[C@@H](C(=O)O)NC(=O)[C@H](Cc2ccccc2)NC(=O)[C@H](CCC(N)=O)NC(=O)[C@H]([C@@H](C)O)NC(=O)[C@@H]2CCCN2C(=O)[C@@H]2CCCN2C1=O
Result: > 8.00

Query: Try the molecule CCCCCC(=O)N[C@H]1CSCc2cc(CSCCNC(=O)CN3CCN(CC(=O)O)CCN(CC(=O)O)CCN(CC(=O)O)CC3)cc(c2)CSC[C@@H](C(=O)NCCC(N)=O)NC(=O)[C@H](Cc2ccccc2)NC(=O)[C@H](CCC(N)=O)NC(=O)[C@H]([C@@H](C)O)NC(=O)[C@@H]2CCCN2C(=O)[C@@H]2CCCN2C1=O
Result: > 8.00

Query: Try the molecule CCCCCC(=O)N[C@H]1CSCc2cc(CSCCNC(=O)[C@H](CO)NC(=O)[C@H](CO)NC(=O)[C@H](CO)NC(=O)CS)cc(c2)CSC[C@@H](C(=O)O)NC(=O)[C@H](Cc2ccccc2)NC(=O)[C@H](CCC(N)=O)NC(=O)[C@H]([C@@H](C)O)NC(=O)[C@@H]2CCCN2C(=O)[C@@H]2CCCN2C1=O
Result: 7.10 to 8.00

Query: Try the molecule CCCC[C@H](NC(=O)CCC(=O)NCCCOCCOCCOCCCNC(=O)[C@H](CCC(=O)NC[C@H](O)[C@@H](O)[C@H](O)[C@H](O)CO)NC(=O)[C@H](CCC(=O)NC[C@H](O)[C@@H](O)[C@H](O)[C@H](O)CO)NC(=O)C(CNCCN)CNCCN)C(=O)N[C@H]1CSCc2cccc(c2)CSC[C@@H](C(=O)O)NC(=O)[C@H](Cc2ccccc2)NC(=O)[C@H](CCC(=O)O)NC(=O)[C@H]([C@@H](C)O)NC(=O)[C@@H]2CCCN2C(=O)[C@@H]2CCCN2C1=O
Result: 7.10 to 8.00

Query: Try the molecule CCCCCC(=O)N[C@H]1CSCc2cc(CSCCNC(=O)CN3CCN4CCN5CCN(CC3)CC(=O)[O][Eu]([O]C(=O)C4)[O]C(=O)C5)cc(c2)CSC[C@@H](C(=O)O)NC(=O)[C@H](Cc2ccccc2)NC(=O)[C@H](CCC(N)=O)NC(=O)[C@H]([C@@H](C)O)NC(=O)[C@@H]2CCCN2C(=O)[C@@H]2CCCN2C1
Result: > 8.00

Let us examine a further case.
Query: Requested read-out: pIC50. Entry: CCCCCC(=O)N[C@H]1CSCc2cc(CSCCNC(=O)CN3CCN(CC(=O)O)CCN(CC(=O)O)CCN(CC(=O)O)CC3)cc(c2)CSC[C@@H](C(=O)O)NC(=O)[C@H](Cc2ccccc2C(F)(F)F)NC(=O)[C@H](CCC(N)=O)NC(=O)[C@H]([C@@H](C)O)NC(=O)[C@@H]2CCCN2C(=O)CN(C)C1=O [3BP-3680] (Hexanoyl-C[Sar]PTQ[Phe(2-CF3)]C-OH; linker 1-7 via TBMB(SCH2CH2NH-DOTA))
Result: > 8.00
